Values were extracted from ChEMBL document CHEMBL5154941.

- ASSAYED TARGET: Dual specificity calcium/calmodulin-dependent 3',5'-cyclic nucleotide phosphodiesterase 1C (Homo sapiens)
- Sequence (Q14123 whole entry, the tested form may be a part): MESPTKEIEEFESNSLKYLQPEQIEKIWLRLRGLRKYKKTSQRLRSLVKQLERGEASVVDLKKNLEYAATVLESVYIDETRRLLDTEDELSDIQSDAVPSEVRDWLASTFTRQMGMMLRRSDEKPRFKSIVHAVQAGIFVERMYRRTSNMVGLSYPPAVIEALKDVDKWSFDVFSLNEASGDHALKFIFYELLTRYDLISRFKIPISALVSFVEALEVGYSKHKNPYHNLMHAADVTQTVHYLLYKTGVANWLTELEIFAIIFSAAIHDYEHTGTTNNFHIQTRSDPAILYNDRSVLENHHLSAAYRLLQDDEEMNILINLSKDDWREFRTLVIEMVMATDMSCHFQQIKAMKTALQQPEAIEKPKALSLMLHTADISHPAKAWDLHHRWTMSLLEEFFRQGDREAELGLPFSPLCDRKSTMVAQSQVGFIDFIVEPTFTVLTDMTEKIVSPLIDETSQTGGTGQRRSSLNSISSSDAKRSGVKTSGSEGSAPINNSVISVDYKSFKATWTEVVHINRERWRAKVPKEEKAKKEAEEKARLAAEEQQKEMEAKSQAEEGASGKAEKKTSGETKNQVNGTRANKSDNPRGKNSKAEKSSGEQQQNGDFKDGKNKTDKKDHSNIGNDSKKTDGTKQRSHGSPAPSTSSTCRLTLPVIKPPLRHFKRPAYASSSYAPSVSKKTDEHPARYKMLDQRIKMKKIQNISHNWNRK
- TEST DETAILS: Inhibition of PDE1C (147 to 531 residues) (unknown origin) expressed in Escherichia coli BL21 at 1000 nM [3H]-cGMP as substrate measured for 15 mins by liquid scintillation counter method relative to control
MEASUREMENT NAME: inhibition (%)

1) COC(=O)C1=C(C)NC(C)=C(C(=O)OC)C1c1ccc(OC)c(OC)c1; 43
2) COC(=O)C1=C(C)NC(C)=C(C(=O)OC)C1c1cccc(C#N)c1; 25
3) COC(=O)C1=C(C)NC(C)=C(C(=O)OC)C1c1cccc(OC)c1; 7
4) COC(=O)C1=C(C)NC(C)=C(C(=O)OC)C1c1ccc(F)c(F)c1; 42

====

- ASSAYED TARGET: UniProt:Q9Y233
- Sequence (Q9Y233 whole entry): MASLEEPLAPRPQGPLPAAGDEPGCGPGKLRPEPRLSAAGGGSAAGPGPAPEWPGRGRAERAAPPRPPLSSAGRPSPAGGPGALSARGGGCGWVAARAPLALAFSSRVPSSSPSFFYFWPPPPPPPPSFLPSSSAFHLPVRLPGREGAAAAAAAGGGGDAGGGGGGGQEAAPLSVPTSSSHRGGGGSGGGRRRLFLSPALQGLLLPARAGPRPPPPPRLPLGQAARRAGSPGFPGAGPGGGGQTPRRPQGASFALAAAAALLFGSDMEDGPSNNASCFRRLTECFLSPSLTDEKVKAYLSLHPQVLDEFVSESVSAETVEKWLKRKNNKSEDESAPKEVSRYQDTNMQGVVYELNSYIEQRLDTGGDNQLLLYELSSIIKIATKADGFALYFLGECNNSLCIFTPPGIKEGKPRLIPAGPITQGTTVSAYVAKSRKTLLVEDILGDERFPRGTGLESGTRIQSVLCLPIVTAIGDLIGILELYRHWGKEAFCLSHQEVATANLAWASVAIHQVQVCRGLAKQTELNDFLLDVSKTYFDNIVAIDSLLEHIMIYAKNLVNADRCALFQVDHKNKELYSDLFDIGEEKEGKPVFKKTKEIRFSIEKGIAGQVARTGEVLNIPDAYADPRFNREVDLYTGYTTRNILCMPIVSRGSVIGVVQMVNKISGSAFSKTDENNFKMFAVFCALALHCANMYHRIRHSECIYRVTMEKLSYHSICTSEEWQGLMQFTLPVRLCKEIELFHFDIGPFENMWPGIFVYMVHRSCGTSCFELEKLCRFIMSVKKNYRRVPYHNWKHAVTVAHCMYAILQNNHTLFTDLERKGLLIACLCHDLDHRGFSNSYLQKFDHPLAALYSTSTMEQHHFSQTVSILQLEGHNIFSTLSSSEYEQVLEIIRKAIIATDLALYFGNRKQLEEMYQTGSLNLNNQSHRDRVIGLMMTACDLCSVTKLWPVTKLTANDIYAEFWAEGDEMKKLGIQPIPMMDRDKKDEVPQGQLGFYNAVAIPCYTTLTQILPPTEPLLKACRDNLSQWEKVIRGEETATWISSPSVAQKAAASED
MEASUREMENT NAME: IC50 (nM)

1. CC1=C(C(=O)O[C@H](C)c2ccccc2)C(c2ccc3c(cnn3C)c2)C(C(=O)O[C@H](C)c2ccccc2)=C(C)N1; 1310

====

- ASSAYED TARGET: High affinity cAMP-specific and IBMX-insensitive 3',5'-cyclic phosphodiesterase 8A (Homo sapiens, UniProt O60658)
- Sequence (O60658 whole entry): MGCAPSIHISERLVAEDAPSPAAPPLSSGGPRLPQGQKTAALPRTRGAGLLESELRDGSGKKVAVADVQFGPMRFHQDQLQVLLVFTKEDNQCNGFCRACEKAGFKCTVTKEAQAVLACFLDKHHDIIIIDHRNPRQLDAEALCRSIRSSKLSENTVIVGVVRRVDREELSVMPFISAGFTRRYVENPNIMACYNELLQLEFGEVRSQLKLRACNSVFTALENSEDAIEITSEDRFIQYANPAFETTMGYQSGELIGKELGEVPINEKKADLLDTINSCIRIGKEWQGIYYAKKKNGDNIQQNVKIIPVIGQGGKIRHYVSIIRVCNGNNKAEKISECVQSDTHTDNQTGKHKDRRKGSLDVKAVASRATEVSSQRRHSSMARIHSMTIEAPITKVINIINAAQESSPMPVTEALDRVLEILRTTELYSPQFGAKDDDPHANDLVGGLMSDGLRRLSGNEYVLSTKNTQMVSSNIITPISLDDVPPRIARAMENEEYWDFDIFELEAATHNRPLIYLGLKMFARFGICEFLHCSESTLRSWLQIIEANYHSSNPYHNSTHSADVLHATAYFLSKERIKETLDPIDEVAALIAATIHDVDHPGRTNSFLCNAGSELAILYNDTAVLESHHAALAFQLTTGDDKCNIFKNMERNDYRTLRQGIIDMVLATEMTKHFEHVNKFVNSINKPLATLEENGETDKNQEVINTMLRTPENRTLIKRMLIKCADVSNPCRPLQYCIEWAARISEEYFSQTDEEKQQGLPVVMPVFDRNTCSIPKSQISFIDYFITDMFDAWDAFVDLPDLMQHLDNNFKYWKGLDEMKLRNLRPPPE
MEASUREMENT NAME: IC50

1) CC1=C(C(=O)O[C@H](C)c2ccccc2)C(c2ccc3c(cnn3C)c2)C(C(=O)O[C@H](C)c2ccccc2)=C(C)N1; > 10 µM

====

- ASSAYED TARGET: 3',5'-cyclic-AMP phosphodiesterase 4B (Homo sapiens, UniProt Q07343)
MEASUREMENT NAME: IC50 (nM)

1) CC1=C(C(=O)O[C@H](C)c2ccccc2)C(c2ccc3c(cnn3C)c2)C(C(=O)O[C@H](C)c2ccccc2)=C(C)N1; 619

====

- ASSAYED TARGET: cGMP-dependent 3',5'-cyclic phosphodiesterase (Homo sapiens, UniProt O00408)
- Sequence (O00408 whole entry): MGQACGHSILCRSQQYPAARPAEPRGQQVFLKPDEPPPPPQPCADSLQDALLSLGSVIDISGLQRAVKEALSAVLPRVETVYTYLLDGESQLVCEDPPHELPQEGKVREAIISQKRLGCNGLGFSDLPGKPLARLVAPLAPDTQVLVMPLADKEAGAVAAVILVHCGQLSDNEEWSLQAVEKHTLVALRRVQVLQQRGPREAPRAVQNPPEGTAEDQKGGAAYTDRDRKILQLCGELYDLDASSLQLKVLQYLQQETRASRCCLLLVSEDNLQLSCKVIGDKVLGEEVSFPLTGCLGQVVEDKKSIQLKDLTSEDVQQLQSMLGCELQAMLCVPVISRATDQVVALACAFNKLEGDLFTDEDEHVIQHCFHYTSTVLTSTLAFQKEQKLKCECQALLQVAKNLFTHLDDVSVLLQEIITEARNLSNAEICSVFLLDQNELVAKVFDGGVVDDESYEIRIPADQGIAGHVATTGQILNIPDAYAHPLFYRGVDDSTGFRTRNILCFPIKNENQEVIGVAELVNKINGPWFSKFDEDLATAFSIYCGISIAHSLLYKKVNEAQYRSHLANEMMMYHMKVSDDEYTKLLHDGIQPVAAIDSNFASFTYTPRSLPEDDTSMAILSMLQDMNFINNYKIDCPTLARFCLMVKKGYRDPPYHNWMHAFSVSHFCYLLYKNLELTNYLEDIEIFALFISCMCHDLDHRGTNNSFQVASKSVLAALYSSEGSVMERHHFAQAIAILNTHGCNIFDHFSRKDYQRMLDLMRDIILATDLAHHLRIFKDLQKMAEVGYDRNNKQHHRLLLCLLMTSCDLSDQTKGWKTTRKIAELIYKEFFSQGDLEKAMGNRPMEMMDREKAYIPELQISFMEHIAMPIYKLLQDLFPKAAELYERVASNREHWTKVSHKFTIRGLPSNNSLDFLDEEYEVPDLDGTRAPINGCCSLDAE
MEASUREMENT NAME: IC50 (µM)

1. CC1=C(C(=O)O[C@H](C)c2ccccc2)C(c2ccc3c(cnn3C)c2)C(C(=O)O[C@H](C)c2ccccc2)=C(C)N1; 5.13

====

- ASSAYED TARGET: Dual specificity calcium/calmodulin-dependent 3',5'-cyclic nucleotide phosphodiesterase 1B (Homo sapiens)
- Sequence (Q01064 whole entry, the tested form may be a part): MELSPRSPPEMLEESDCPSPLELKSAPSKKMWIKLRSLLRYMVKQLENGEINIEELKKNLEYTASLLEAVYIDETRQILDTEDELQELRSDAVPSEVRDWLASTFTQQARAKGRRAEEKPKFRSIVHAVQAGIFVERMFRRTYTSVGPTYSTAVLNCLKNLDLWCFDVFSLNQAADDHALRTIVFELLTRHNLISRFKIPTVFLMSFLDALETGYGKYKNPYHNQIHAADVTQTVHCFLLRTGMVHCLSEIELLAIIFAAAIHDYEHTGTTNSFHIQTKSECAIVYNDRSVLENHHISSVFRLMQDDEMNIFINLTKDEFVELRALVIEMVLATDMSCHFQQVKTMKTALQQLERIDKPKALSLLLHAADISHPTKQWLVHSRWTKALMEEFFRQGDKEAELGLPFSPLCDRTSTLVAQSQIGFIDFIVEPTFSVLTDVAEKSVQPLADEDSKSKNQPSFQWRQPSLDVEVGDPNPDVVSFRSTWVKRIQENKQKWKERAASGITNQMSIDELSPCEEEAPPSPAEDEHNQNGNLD
- TEST DETAILS: Inhibition of PDE1B (10 to 487 residues) (unknown origin) expressed in Escherichia coli BL21 using [3H]-cGMP as substrate measured for 15 mins by liquid scintillation counter method
MEASUREMENT NAME: IC50 (nM)

1. CC1=C(C(=O)O[C@H](C)c2ccccc2)C(c2ccc3c(cnn3C)c2)C(C(=O)O[C@H](C)c2ccccc2)=C(C)N1; 354

====

- ASSAYED TARGET: High affinity cGMP-specific 3',5'-cyclic phosphodiesterase 9A (Homo sapiens, UniProt O76083)
- Sequence (O76083 whole entry): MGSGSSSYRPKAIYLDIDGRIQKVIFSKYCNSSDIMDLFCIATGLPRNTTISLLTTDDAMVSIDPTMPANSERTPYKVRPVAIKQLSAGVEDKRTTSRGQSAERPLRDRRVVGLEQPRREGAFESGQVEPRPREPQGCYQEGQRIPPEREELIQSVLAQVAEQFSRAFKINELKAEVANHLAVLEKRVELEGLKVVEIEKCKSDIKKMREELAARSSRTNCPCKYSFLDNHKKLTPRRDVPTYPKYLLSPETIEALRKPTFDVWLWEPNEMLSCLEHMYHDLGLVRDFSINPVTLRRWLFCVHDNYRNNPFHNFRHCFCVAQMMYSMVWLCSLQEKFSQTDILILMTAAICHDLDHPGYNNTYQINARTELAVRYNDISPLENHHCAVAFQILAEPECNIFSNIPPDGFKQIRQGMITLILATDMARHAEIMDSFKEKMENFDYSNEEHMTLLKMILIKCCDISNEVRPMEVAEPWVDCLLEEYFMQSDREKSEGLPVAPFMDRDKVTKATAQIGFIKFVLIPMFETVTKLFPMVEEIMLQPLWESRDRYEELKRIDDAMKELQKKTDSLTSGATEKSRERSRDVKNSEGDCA
pIC50: −log10 of the molar value.
MEASUREMENT NAME: pIC50

1. CC1=C(C(=O)O[C@H](C)c2ccccc2)C(c2ccc3c(cnn3C)c2)C(C(=O)O[C@H](C)c2ccccc2)=C(C)N1; < 5.00

====

- ASSAYED TARGET: Dual specificity calcium/calmodulin-dependent 3',5'-cyclic nucleotide phosphodiesterase 1A (Homo sapiens, UniProt P54750)
- TEST DETAILS: Inhibition of PDE1A (142 to 552 residues) (unknown origin) expressed in Escherichia coli BL21 measured for 15 mins by liquid scintillation counter method
MEASUREMENT NAME: IC50 (nM)

1. CC1=C(C(=O)O[C@H](C)c2ccccc2)C(c2ccc3c(cnn3C)c2)C(C(=O)O[C@H](C)c2ccccc2)=C(C)N1; 145
